EXPERIMENT: Clearance in rat at 5 mg/kg, iv by ESI-LCMS/MS analysis
Format: ADME, organism-based
ASSAY SETUP: in vivo
READOUT NAME: clearance (mL/min/kg)

>>> numeric_readout("CCOc1cc(-c2nncn2C)ccc1Nc1ncc2cc(C)nc(N3CC(C)(C)C3)c2n1")
7.35
>>> numeric_readout("CCOc1cc(-c2nncn2C)ccc1Nc1ncc2cc(C)nc(N3CC4(CCOCC4)C3)c2n1")
7.59

* * *

ASSAY SYSTEM: CDK2/Cyclin A2 (Homo sapiens)
READOUT NAME: IC50 (nM)

[P] CCOc1cc(-c2nnc(CCN(C)C)n2C)ccc1Nc1ncc2cc(C)nc(NCC(C)(C)C)c2n1
[Q] CCOc1cc(-c2nncn2C)ccc1Nc1ncc2cc(C)nc(N3CC(C)(C#N)C3)c2n1
Given the listed records, identify the one among P and Q with higher IC50. Identify your selection by its label.
Q
(Q: 2700 nM, P: 360 nM)

* * *

Ki, CDK2/Cyclin A2 (Homo sapiens): measured values
READOUT NAME: Ki (nM)

Use the examples below as a reference point.
>>> numeric_readout("COc1cc(-c2cnn(C)c2C)ccc1Nc1ncc2ccnc(NCC(C)(C)C)c2n1")
1500
>>> numeric_readout("CCOc1cc(-c2nncn2C)ccc1Nc1ncc2cc(C)nc(N3CCCC3)c2n1")
550
>>> numeric_readout("CCOc1cc(-c2nncn2C)ccc1Nc1ncc2cc(C)nc(N3CCC3(C)C)c2n1")
13000

[1] CCOc1cc(-c2nncn2C)ccc1Nc1ncc2cc(C)nc(N3CC(C)(C#N)C3)c2n1
[2] CCOc1cc(-c2nnc(CCN(C)C)n2C)ccc1Nc1ncc2cc(C)nc(NCC(C)(C)C)c2n1
[3] COc1cc(-c2cnc(C)n2C)ccc1Nc1ncc2cc(C)nc(NCC(C)(C)C)c2n1
Could you please order the items by Ki, going from the lowest number to the highest? Give the labels in the order specified.
2, 3, 1
(2: 180 nM, 3: 720 nM, 1: 1400 nM)

* * *

EXPERIMENT: Intrinsic clearance in human liver microsomes assessed per mg protein at 1 uM preincubated for 10 mins followed NADPH/UDP-glucuronic acid addition and measured after 30 mins by LC-MS/MS analysis
Type: ADME, microsome
ASSAY SETUP: 0.5 h
READOUT NAME: CLH (µL/min/mg)

Use the examples below as a reference point.
>>> numeric_readout("COc1cc(-c2nnc3n2CCC3)ccc1Nc1ncc2cc(C)nc(NCC(C)(C)C)c2n1")
28.8
>>> numeric_readout("COc1cc(-c2nncn2C)ccc1Nc1ncc2cc(C)nc(NCC(C)(C)C)c2n1")
23.8
>>> numeric_readout("CCOc1cc(-c2nncn2C)ccc1Nc1ncc2cc(C)nc(N3CC(C)(C#N)C3)c2n1")
5.6
>>> numeric_readout("CCOc1cc(-c2nncn2C)ccc1Nc1ncc2cc(C)nc(N3CC4(CCOCC4)C3)c2n1")
9.4
>>> numeric_readout("CCOc1cc(-c2nnc(CCN(C)C)n2C)ccc1Nc1ncc2cc(C)nc(NCC(C)(C)C)c2n1")
23

[a] COc1cc(-c2cnc(C)n2C)ccc1Nc1ncc2cc(C)nc(NCC(C)(C)C)c2n1
[b] CCOc1cc(-c2nncn2C)ccc1Nc1ncc2cc(C)nc(N[C@@H](C)C(C)(C)C)c2n1
[c] CCOc1cc(-c2nncn2C)ccc1Nc1ncc2cc(C)nc(NCC(C)(C)C)c2n1
[d] COc1cc(-c2nncn2C)ccc1Nc1ncc2ccnc(NCC(C)(C)C)c2n1
Could you please order the items by CLH, going from the lowest number to the highest? Give the labels in the order specified.
c, b, a, d

Data credit: ChEMBL document CHEMBL4229562
